Origin of the recorded values: PubChem BioAssay (NCI)

Listing of entries alongside the reported TGI.
system: HL-60(TB) leukemia; assay: NCI tumour cell line growth inhibition, 48 h

molecule: O=c1c(-c2ccc(O)cc2)coc2cc(OC3OC(CO)C(O)C(O)C3O)cc(O)c12 (stereo not given)
result: > 100 µM
//
molecule: CCC1=NC(C(F)(F)F)(C(F)(F)F)N=C(/N=C(/N)N(C)C(C(C)C)P(=O)(OC(C)C)OC(C)C)O1 (stereo not given)
result: > 100 µM

Entry `CCC(=O)NCCc1c2c3c(ccnc3c3ncsc13)-c1ccccc1N2` under HL-60(TB) leukemia had TGI of > 13.4 µM

Entry COc1ccc(N2C(=O)/C(=C\c3cccc(Oc4ccccc4)c3)SC2c2ccccc2)cc1 (stereo not given) under HL-60(TB) leukemia had TGI of > 100 µM

Entry C=C1NC(=O)C(CC(C(=O)C(=O)Nc2c(C)cccc2C(C)(C)C)C(=O)c2ccc3ccccc3c2)C(=O)N1 (stereo not given) under HL-60(TB) leukemia had TGI of > 100 µM

* * *

tested on: SK-MEL-2 melanoma; test: NCI tumour cell line growth inhibition, 48 h
measured.property: TGI

Study these solved cases before continuing.
compound: CCCN1C(=O)/C(=C/c2ccc(O)cc2)SC1=Nc1ccc(OC)cc1
TGI: > 100 µM

compound: O=C(Cn1c(C(=O)c2ccccc2)nc2ccccc21)c1ccc(F)cc1
TGI: > 74 µM

compound: COC(=O)C(=O)C(C(=O)C=C(C)C)C(=O)C(=O)Nc1nc2ccc([N+](=O)[O-])cc2s1 (stereo unspecified)
TGI: > 100 µM

compound: C=CCc1cccc(/C=N\N=C(/N)NO)c1O
TGI: > 54.4 µM

compound: CC(CCCC1SCC2NC(=O)NC21)C(=O)O (stereo unspecified)
TGI: > 100 µM

Entry COc1ccc(/C=C2\CC(C)CC3C2=NN(c2ccccc2)C3c2ccc(OC)c(OC)c2)cc1OC (stereo unspecified) under SK-MEL-2 melanoma had TGI of > 100 µM

* * *

system: UACC-62 melanoma; assay: NCI tumour cell line growth inhibition, 48 h
measured.property: TGI

Study these solved cases before continuing.
compound: COc1ccc2c(c1)C(N)=C(Cc1ccncc1)C2=O
result: > 100 µM
--
compound: Cc1nnc(-c2ccc(C)c(-c3ccc(C(=O)NCc4ccc(Cl)cc4)cc3)c2)o1
result: > 25 µM
--
compound: CC1(C)CN=C(Nc2ccc(F)c(F)c2)S1
result: > 100 µM
--
compound: CCOC(=O)N1[C@@H]2CCC[C@@H]2C(=O)[C@@H]2CCC[C@@H]21
result: > 100 µM
--
compound: O=C(Nn1cnn2c(=O)c3ccccc3nc2c1=O)c1ccccc1
result: > 100 µM

TGI for COc1ccc(N2C(=O)/C(=C\c3cccc(Oc4ccccc4)c3)SC2c2ccccc2)cc1 (stereo not drawn) is > 100 µM

TGI for `COC(=O)c1cc(C)n(CN(Cc2ccccc2)Cn2nc(C(=O)OC)cc2C)n1` is > 100 µM

TGI for `O=C(NNC(=S)NCc1ccccc1)C12CC3CC(CC(C3)C1)C2` is > 100 µM

TGI for `Cc1cc(C)nc(NS(=O)(=O)c2ccc(NC(=O)c3ccc(Cl)c4c(Nc5ccc(S(=O)(=O)N=C(N)N)cc5)c5ccccc5nc34)cc2)n1` is > 100 µM

TGI for `CCN(CC)C(=S)SS(=O)(=O)c1ccccc1[N+](=O)[O-]` is > 100 µM

TGI for COC(=O)C(C(=O)C(=O)Nc1ccc(OC)cc1[N+](=O)[O-])c1nc2cc(C)c(C)cc2[nH]c1=O (stereo not drawn) is > 100 µM

TGI for `CC(=O)O[C@H]1C(=O)[C@@]2(C)[C@H]([C@H](OC(=O)c3ccccc3)[C@@]3(O)C[C@H](O)C(C)=C1C3(C)C)[C@]1(OC(C)=O)CO[C@@H]1C[C@@H]2O` is > 100 µM

TGI for N#Cc1c(-c2ccccc2)c(C#N)c(=O)n(C2OC(CO)C(O)C(O)C2O)c1S (stereo not drawn) is > 100 µM

TGI for `Cc1cc2c(cc1C)C(=O)/C(=N/Nc1ccc(F)cc1)CCO2` is > 100 µM

TGI for OC(c1ccccc1)C(F)(F)c1nc2ccccc2o1 (stereo not drawn) is > 100 µM

TGI for COC(=O)C1C(C(=O)OC)C1(Br)CBr (stereo not drawn) is > 100 µM

TGI for `C=CCn1cnc2c(=O)[nH]c(Nc3ccccc3)nc21` is > 100 µM

TGI for O=C1C2ON3c4ccccc4C(=O)C3(c3ccccc3)C2C(=O)N1c1ccccc1 (stereo not drawn) is > 100 µM
